B1: HNF4A (parent)
chain: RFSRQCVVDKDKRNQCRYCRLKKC

Variants of: B1
test_details: protein stability index of a GFP-peptide fusion (GPS, HEK-293T) (PSI 1-6); higher = more stable;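 also: lentivirally expressed fusions sorted by FACS into six bins by GFP to DsRed ratio, PSI derived from sequencing read proportions per bin multiplied by bin number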
condition: c terminus: a fixed tail appended
assay_endpoint: protein stability index
# output: bare number, no unit

Please review the following examples before continuing.
> print(dat)
   mutant.name  value.measured
1         R20A            2.96
2          C6A            3.24
3          S3V            2.17
4         R17P             2.9
5          Q5Y            2.22

## Input Item `D9A` : provide protein stability index
## Output 2.07

## Input Item `K22H` : provide protein stability index
## Output 1.71

## Input Item `V8S` : provide protein stability index
## Output 2.48

## Input Item `S3C` : provide protein stability index
## Output 3.62

## Input Item `Q5P` : provide protein stability index
## Output 2.39

## Input Item `K22Y` : provide protein stability index
## Output 1.98
